- SUBJECT_OF_TEST: LRP1 cluster 4-Fc chimeric proteins (UniProt Q07954)
- EXPERIMENTAL_PROTOCOL: competitive ELISA, LRP1 cluster 4-Fc captured; peptide 2,000 nM against biotin-Sequence 46 500 nM
Bridge positions count the residues as written; N and C are the ends. Square brackets hold non-standard residues; d marks the D form. Ends that are not written are not given here. * marks the point of attachment. 5FAM = O=C1OC2(c3ccc(O)cc3Oc3cc(O)ccc32)c2ccc(C(=O)*)cc21; Nle = CCCC[C@H](N)C(=O)O
Kind request: treat 80% as inclusive, so inhibitory activity (%) at 80% or higher is met, anything lower is not met.

Item Ac-K(5FAM)GTP[dC]TYKY[Nle]LAE[Nle]C (disulfide 5-15) [SEQUENCE 6] with inhibitory activity (%) of 80% or above?
met

What do you have for Ac-K(5FAM)GTPCTYRY[Nle]LAE[Nle]C (disulfide 5-15) [SEQUENCE 24] ?
not met

What do you have for Ac-K(5FAM)GTPCTYKY[Nle]LAE[Nle][dC] (cysteine pairing not given here) [SEQUENCE 9] ?
met

What do you have for Ac-K(5FAM)GTPCTYKY[Nle]LAE[Nle]PC (disulfide 5-16) [SEQUENCE 43] ?
met
